Every entry's value here was drawn from patent US20030022158A1.

# Tested on: human IgG antibodies in human serum samples
# RUN DESCRIPTION: EIA of human antibody reactivities to overlapping synthetic peptides of TTV ORF1 and ORF2 (Tables 2 and 3)
# Assay type: binding
# EXPERIMENTAL SETUP: tested human sera, EIA
PROPERTY NAME: human reactivity to peptide (reactive peptides within ORF1)

SEQUENCE CODE: DQNIHMNARLLIRSPFT (Peptide Immunogen) [compound 50, overlapping synthetic peptide of TTV ORF1]
RESULT VALUE: Reactive
//
SEQUENCE CODE: PDEKSQREILLNKIASY (Peptide Immunogen) [compound 29, overlapping synthetic peptide of TTV ORF1]
RESULT VALUE: Reactive
//
SEQUENCE CODE: LIRSPFTDPQLLVHTDP (Peptide Immunogen) [compound 51, overlapping synthetic peptide of TTV ORF1]
RESULT VALUE: Reactive

* * *

# Tested on: human IgG antibodies in human serum samples
# RUN DESCRIPTION: EIA of human antibody reactivities to overlapping synthetic peptides of TTV ORF1 and ORF2 (Tables 2 and 3)
# Type: binding
# EXPERIMENTAL SETUP: human serum sample 4, negative for TTV DNA by PCR; serum diluted 1:100; OD over 0.500 considered positive
# Excerpt: Overlapping peptides (18 amino acids in length containing an 8 amino acid overlap) corresponding to regions of the ORFI and ORF2 of TTV (TABLE 1; Genebank accession no AB008394) were produced by a multiple peptide synthesizer (Syro, Syntex, Germany) using standard Fmoc chemistry (Sallberg et al., Immunology Letters, 30:59 68 (1991), herein expressly incorporated by reference in its entirety). The EIAs used to identify which peptides interacted with human sera followed protocols known in the art. […]
The threshold is inclusive: optical density (OD) at 405 nm of exactly 0.1 OD counts as rule met; values below receive rule not met.

Below, 2 substances whose answers are already recorded.
SUBSTANCE: VLICGENTVSRNYATHS (Peptide Immunogen) [compound 10, overlapping synthetic peptide of TTV ORF1]
SYSTEM NAME: human IgG antibodies in human serum samples
CLASS LABEL: rule met

SUBSTANCE: PDEKSQREILLNKIASY (Peptide Immunogen) [compound 29, overlapping synthetic peptide of TTV ORF1]
SYSTEM NAME: human IgG antibodies in human serum samples
CLASS LABEL: rule met

## Task Decide: optical density (OD) at 405 nm of DQNIHMNARLLIRSPFT (Peptide Immunogen) [compound 50, overlapping synthetic peptide of TTV ORF1] >= 0.1 OD?
## Result rule not met

## Task Decide: optical density (OD) at 405 nm of 20: overlapping synthetic peptide of TTV ORF1 (TATTTTYAYPGTNRPP) [compound 20] >= 0.1 OD?
## Result rule not met

## Task Decide: optical density (OD) at 405 nm of YTDIKYNPFTDRGEGNM (Peptide Immunogen) [compound 44, overlapping synthetic peptide of TTV ORF1] >= 0.1 OD?
## Result rule met

* * *

Listed here are substances together with their documented optical density (OD) at 405 nm.
# Tested on: human IgG antibodies in human serum samples
# RUN DESCRIPTION: EIA of human antibody reactivities to overlapping synthetic peptides of TTV ORF1 and ORF2 (Tables 2 and 3)
# Type: binding
# EXPERIMENTAL SETUP: human serum sample 157, positive for TTV DNA by PCR; serum diluted 1:100; OD over 0.500 considered positive
Please don't drop the unit; write it after the number.

Here's what some known entries look like.
SUBSTANCE: 22: overlapping synthetic peptide of TTV ORF1 (TATTTTYAYPGTNR) [compound 22]
SYSTEM NAME: human IgG antibodies in human serum samples
optical density (OD) at 405 nm: 0.11 OD

SUBSTANCE: QKESLLFPPVKLLRRVP (Peptide Immunogen) [compound 69, overlapping synthetic peptide of TTV ORF1]
SYSTEM NAME: human IgG antibodies in human serum samples
optical density (OD) at 405 nm: 0.21 OD

SUBSTANCE: GLYSSIWLSPGRSYFET (Peptide Immunogen) [compound 42, overlapping synthetic peptide of TTV ORF1]
SYSTEM NAME: human IgG antibodies in human serum samples
optical density (OD) at 405 nm: 1.24 OD

SUBSTANCE: TATTTTYAYPGTNRPPV (Peptide Immunogen) [peptide 35, overlapping synthetic peptide of TTV ORF1]
SYSTEM NAME: human IgG antibodies in human serum samples
optical density (OD) at 405 nm: 0.86 OD

## Task Tell us which optical density (OD) at 405 nm value is on record for 2: overlapping synthetic peptide of TTV ORF1 (YAYPGTNRPPV) [compound 2]
## Result 0.08 OD

## Task Tell us which optical density (OD) at 405 nm value is on record for YTDIKYNPFTDRGEGNM (Peptide Immunogen) [compound 44, overlapping synthetic peptide of TTV ORF1]
## Result 1.25 OD

## Task Tell us which optical density (OD) at 405 nm value is on record for PDEKSQREILLNKIASY (Peptide Immunogen) [compound 29, overlapping synthetic peptide of TTV ORF1]
## Result 0.62 OD
